Data credit: patent US20260193326A1

As shown below, each of these binders has a reported koff value.
molecular target: AAV8 (adeno-associated virus serotype 8); assay: SPR, AAV on CM5 chip
Hi! Could you send only the number? It should be in s⁻¹, unit omitted.

// below: answered binders
INSERT INTO measurements (binder, reported_result) VALUES
  ('A4-C6 (bispecific antibody) VQLQESGGGLVQPGGSLRLSCAASGSNFRINTMGWYRQAPGKQRELVAPVTRGGSTNYADSVKGRFTISRDNAKNTVYLQMNSLRPEDTAVYYCHVDEVRESSWTTSNLWGQGTQVTVSSGGGGSGGGGSGGGGSVQLQESGGGLVQPGGSLRLSCAASGSNFSINTMGWYRQAPGKQRELVAALTRGGSTNYADSVKGRFTISRDNAKNTVYLQMNSLRPEDTAVYYCHVDEVRESSWTTSNLWGQGTQVTVSSGGGGSGGGGSGGGGSVQLQESGGGLVQPGGSLRLSCAASGSNFSINTMGWYRQAPGKQRELVATVTRGGDTNYADSVKGRFTISRDNAKNTVYLQMNSLRPEDTAVYYCHVDEIRESSWTTSNLWGQGTQVTVSS', 0.00044),
  ('A4-C2 (VHH) VQLQESGGGLVQPGGSLRLSCAASGSAFSINTMGWYRQAPGKQRELVASVTPGGSTNYADSVKGRFTISRDNAKNTIYLQMNSLRPEDTAVYYCHLDEVRESSWTTSNLWGQGTQVTVSSGGGGSGGGGSGGGGSVQLQESGGGLVQPGGSLRLSCAASGSAFSINTMGWYRQAPGKQRELVASVTPGGSTNYADSVKGRFTISRDNAKNTIYLQMNSLRPEDTAVYYCHLDEVRESSWTTSNLWGQGTQVTVSSGGGGSGGGGSGGGGSVQLQESGGGLVQPGGSLRLSCAASGSAFSINTMGWYRQAPGKQRELVASVTPGGSTNYADSVKGRFTISRDNAKNTIYLQMNSLRPEDTAVYYCHLDEVRESSWTTSNLWGQGTQVTVSS', '5e-05'),
  ('A4-B1 (VHH) VQLQESGGGLVQPGGSLRLSCAASGSIFSINLMGWYRQAPGKQRELVATITRGGNTNYAGSVKGRFTISRDNAKNTVYLQMNSLRPEDTAVYYCHVDEVRQSSWTTSNLWGQGTQVTVSSGGGGSGGGGSGGGGSVQLQESGGGLVQPGGSLRLSCAASGSIFSINLMGWYRQAPGKQRELVATITRGGNTNYAGSVKGRFTISRDNAKNTVYLQMNSLRPEDTAVYYCHVDEVRQSSWTTSNLWGQGTQVTVSS', 0.000154);

Now consider the entry below.
Endpoint output: koff of A4-C5 (bispecific antibody) VQLQESGGGLVQPGGSLRLSCAASGSNFRINTMGWYRQAPGKQRELVATVTRGGSTNYADSVKGRFTISRDNPKNTVYLQMNSLRPEDTAVYYCHVDEVRESSWTTSNLWGQGTQVTVSSGGGGSGGGGSGGGGSVQLQESGGGLVQPGGSLRLSCAASGSNFSINTMGWYRQAPGKQRELVATVTRGGDTNYADSVKGRFTISRDNAKNTVYLQMNSLRPEDTAVYYCHVDEIRESSWTTSNLWGQGTQVTVSSGGGGSGGGGSGGGGSVQLQESGGGLVQPGGSLRLSCAASGSNFRINTMGWYRQAPGKQRELVATVTRGGSTNYADSVKGRFTISRDNPKNTVYLQMNSLRPEDTAVYYCHVDEVRESSWTTSNLWGQGTQVTVSS . Value?
0.00091
